Form field: pIC50 (one value per entry).
system: Human Pancreatic Cancer Cell Line Panc1; assay: Cell death assay (propidium iodide/Hoechst) in Panc1 cells with or without camptothecin; assay type: cell-based; details: with 3 uM Camptothecin, 72 hours, % cell death by propidium iodide/Hoechst, read-out: Panc1 + Cpt IC50
pIC50: −log10 of the molar value.

{"columns": ["compound", "study.system", "pIC50"],
 "data": [
  ["CC(O)C1C(CO)ON(Cc2cccc(CN(CCN3CCCCC3)Cc3ccccc3)c2)C1C(=O)NC1CC2CC(C1C)C2(C)C (stereo not drawn) [Compound 433]", "Human Pancreatic Cancer Cell Line Panc1", "< 5.60"],
  ["CC(C)CC(CN(C)C)N(Cc1ccccc1)Cc1cccc(CN2OC(CO)C(C(C)O)C2C(=O)NC2CC3CC(C2C)C3(C)C)c1 (stereo not drawn) [Compound 311]", "Human Pancreatic Cancer Cell Line Panc1", "5.60 to 5.74"],
  ["CC(O)C1C(CO)ON(Cc2cccc(CNC(Cc3ccccc3)CN(C)C)c2)C1C(=O)NC1CC2CC(C1C)C2(C)C (stereo not drawn) [Compound 454]", "Human Pancreatic Cancer Cell Line Panc1", "< 5.60"],
  ["CC(O)C1C(CO)ON(Cc2cccc(CN(CCN(C)C)Cc3ccc([N+](=O)[O-])cc3)c2)C1C(=O)NC1CC2CC(C1C)C2(C)C (stereo not drawn) [Compound 396]", "Human Pancreatic Cancer Cell Line Panc1", "< 5.60"],
  ["CC(C)CC(CN(C)C)N(Cc1cccc(CN2OC(CO)C(C(C)O)C2C(=O)NC2CC3CC(C2C)C3(C)C)c1)Cc1ccccc1I (stereo not drawn) [Compound 318]", "Human Pancreatic Cancer Cell Line Panc1", "< 5.60"],
  ["CC(O)C1C(CO)ON(Cc2cccc(CN(Cc3ccccc3)C(Cc3ccccc3)CN(C)C)c2)C1C(=O)NC1CC2CC(C1C)C2(C)C (stereo not drawn) [Compound 423]", "Human Pancreatic Cancer Cell Line Panc1", "< 5.60"]
]}

* * *

pKi: −log10 of the molar value.
Test system Bcl-2 (Homo sapiens, UniProt P10415), pKi listed for each of the compounds.
outcome.measure: pKi

{"columns": ["compound", "observed.value"],
 "data": [
  ["C[C@H](O)[C@@H]1[C@H](CO)ON(Cc2cccc(CN(CCN(C)C)Cc3ccccc3)c2)[C@@H]1C(=O)NCCc1c[nH]c2ccccc12", "4.30 to 5.22"],
  ["C[C@@H]1[C@@H](NC(=O)[C@@H]2[C@H]([C@H](C)O)[C@H](CO)ON2Cc2cccc(-c3ccc(C(=O)N(C)C)c([N+](=O)[O-])c3)c2)C[C@H]2C[C@@H]1C2(C)C", "> 6.10"],
  ["C[C@@H]1[C@@H](NC(=O)[C@@H]2[C@H]([C@H](C)O)[C@H](CO)ON2Cc2cccc(-c3ccc(S(N)(=O)=O)cc3)c2)C[C@H]2C[C@@H]1C2(C)C", "> 6.10"],
  ["COC(=N)c1ccc(-c2cccc(CN3O[C@@H](CO)[C@@H]([C@H](C)O)[C@H]3C(=O)NC3C[C@@H]4CC([C@@H]3C)C4(C)C)c2)cc1 (some centres unmarked)", "> 6.10"],
  ["C[C@@H]1[C@@H](NC(=O)[C@@H]2[C@H]([C@H](C)O)[C@H](CO)ON2Cc2cccc(-c3ccc(C(=O)N(CCN(C)C)Cc4ccccc4)cc3)c2)C[C@H]2C[C@@H]1C2(C)C", "> 6.10"],
  ["Cc1cccc(CN(Cc2cccc(CN3OC(CO)C(C(C)O)C3C(=O)NC3CC4CC(C3C)C4(C)C)c2)C(CC(C)C)CN(C)C)c1O (centres unmarked)", "> 6.10"],
  ["C[C@@H]1[C@@H](NC(=O)[C@@H]2[C@H]([C@H](C)O)[C@H](CO)ON2Cc2cccc(-c3cccc(C(=O)N(C)CCCN(C)C)c3)c2)C[C@H]2C[C@@H]1C2(C)C", "> 6.10"],
  ["CC(C)CC(CN(C)C)N(Cc1cccc(CN2OC(CO)C(C(C)O)C2C(=O)NC2CC3CC(C2C)C3(C)C)c1)Cc1ccccc1[N+](=O)[O-] (centres unmarked)", "> 6.10"],
  ["CC(O)C1C(CO)ON(Cc2cccc(CN(Cc3ccccc3)C3CCN(C)C3)c2)C1C(=O)NC1CC2CC(C1C)C2(C)C (centres unmarked)", "> 6.10"],
  ["C[C@@H]1[C@@H](NC(=O)[C@@H]2[C@H]([C@H](C)O)[C@H](CO)ON2Cc2cccc(C#CCNCc3c[nH]c4ccccc34)c2)C[C@H]2C[C@@H]1C2(C)C", "5.22 to 6.10"],
  ["CC(O)C1C(CO)ON(Cc2cccc(CN(CCN(C)C)CC3CC3)c2)C1C(=O)NC1CC2CC(C1C)C2(C)C (centres unmarked)", "> 6.10"]
]}
